Measured Target: KRasG12C (M1-K169, biotinylated on the N-terminus) (Homo sapiens (Human), UniProt P01116, G12C)
Measurement Protocol: Covalent competition assay: scintillation proximity assay (SPA) quantifying covalent modification of KRASG12C
Stated Conditions: competition with radiolabeled covalent probe (Compound B/Compound A), 2 hours incubation, 10 nM KRasG12C
Attribute Measured: IC50

Entry C=CC(=O)N1CC2(CC(n3nc(N4CC[C@@H](CN5CCC[C@H]5C(=O)N(C)C)CC4(C)C)c(-c4c(Cl)c(Cl)cc5[nH]ncc45)c3C)C2)C1 (single isomer, unassigned) [Example 313a] , IC50 reported as 410 nM

Please fill in: IC50 reported for C=CC(=O)N1CC2(CC(n3nc(N4CCC(CN5CCS(=O)(=O)CC5)CC4(C)C)c(-c4c(Cl)c(Cl)cc5[nH]ncc45)c3C)C2)C1 (single isomer, unassigned) [Example 235b] = 10 nM

// C=CC(=O)N1CC2(CC(n3nc(N4CC[C@@H](CN5CCN(C6COC6)C6COCC65)CC4(C)C)c(-c4c(Cl)c(Cl)cc5[nH]ncc45)c3C)C2)C1 (single isomer, unassigned) [Example 280a] : IC50 value = > 5000 nM

molecule C=CC(=O)N1CC2(CC(n3nc(N4CC[C@@H](CN5CCN(CCO)C(=O)C5)CC4(C)C)c(-c4c(Cl)c(Cl)cc5[nH]ncc45)c3C)C2)C1 (single isomer, unassigned) [Example 251b] , IC50 observed: 9 nM

IC50 measured on C=CC(=O)N1CC2(CC(n3nc(N4CC[C@@H](CN5CCN6C(=O)N(C)CC6C5)CC4(C)C)c(-c4c(Cl)c(Cl)cc5[nH]ncc45)c3C)C2)C1 (single isomer, unassigned) [Example 263a] = > 5000 nM

###

Measured Target: KRasG12C (M1-K169, biotinylated on the N-terminus) (Homo sapiens (Human), UniProt P01116, G12C)
Measurement Protocol: Covalent competition assay: scintillation proximity assay (SPA) quantifying covalent modification of KRASG12C
Stated Conditions: competition with radiolabeled covalent probe (Compound B/Compound A), 2 hours incubation, 10 nM KRasG12C
Consider the following compounds; for each one, report its IC50.
Reply numerically in nM, unit not repeated.

Sample C=CC(=O)N1CC2(CC(n3nc(N4CCN(C5COCCOC5)C[C@]4(C)CC)c(-c4c(Cl)c(C)cc5[nH]ncc45)c3C)C2)C1 (single isomer, unassigned) [Example 159b] ; IC50 observed: 9

Form field IC50, entry C=CC(=O)N1CC2(CC(n3nc(N4CC[C@@H](CN5CCOC6(COC6)C5)CC4(C)C)c(-c4c(Cl)c(C)cc5[nH]ncc45)c3C)C2)C1 (single isomer, unassigned) [Example 299b] : 23

So for C=CC(=O)N1CC2(CC(n3nc(N4CCN(C[C@@H]5COCCO5)C[C@]4(C)COC)c(-c4c(Cl)c(C)cc5[nH]ncc45)c3C)C2)C1 (single isomer, unassigned) [Example 181b] , the logged IC50 turned out to be 8

// IC50 value for C=CC(=O)N1CC2(CC(n3nc(N4CCN(C[C@@H]5COCCO5)CC4(C)C)c(-c4c(Cl)c(Cl)cc5[nH]ncc45)c3C)C2)C1 (single isomer, unassigned) [Example 172b] : 15

# IC50 (compound: C=CC(=O)N1CC2(CC(n3nc(N4CC[C@@H](CN5CCN(CCOC)C(=O)C5)CC4(C)C)c(-c4c(Cl)c(Cl)cc5[nH]ncc45)c3C)C2)C1 (single isomer, unassigned) [Example 256b] ) is 10

Record C=CC(=O)N1CC2(CC(n3nc(N4CCN(C5COC5)C5COCC54)c(-c4c(Cl)c(C)cc5[nH]ncc45)c3C)C2)C1 (single isomer, unassigned) [Example 137b] , field IC50: 975

The compound listed as C=CC(=O)N1CC2(CC(n3nc(N4CCn5nccc5C4)c(-c4c(Cl)c(C)cc5[nH]ncc45)c3C)C2)C1 (single isomer, unassigned) [Example 10a] shows IC50 equal to 50000

Lab note: measured IC50 of C=C(F)C(=O)N1CC2(CC(n3nc(N4CCN(C[C@@H]5COCCO5)C[C@]4(C)CC)c(-c4c(Cl)c(C)cc5[nH]ncc45)c3C)C2)C1 (single isomer, unassigned) [Example 174b] was 121

So, C=CC(=O)N1CC2(CC(n3nc(N4CCC(CN5CCOCC5)C4(C)C)c(-c4c(Cl)c(Cl)cc5[nH]ncc45)c3C)C2)C1 (single isomer, unassigned) [Example 219b] ? Its IC50 was 42

Briefly, IC50 measured for C=CC(=O)N1CC2(CC(n3nc(N4CCC(N(C)C(=O)COC)CC4(C)C)c(-c4c(Cl)c(C)cc5[nH]ncc45)c3C)C2)C1 (single isomer, unassigned) [Example 97a] : 300
